Experiment: Absorption of leupeptin into plasma after intramuscular injection (FIG. 2)
Format: in vivo, rats
Settings: rat, plasma; leupeptin 18 mg/kg intramuscular injection in hind-limbs, 24 hr; read-out: plasma level by 24 hr
assay_endpoint: concentration at 24 h (ng/mL)
Give bare numbers, in ng/mL.

Problem: # return recorded concentration at 24 h for entry CC(=O)N[C@@H](CC(C)C)C(=O)N[C@@H](CC(C)C)C(=O)N[C@H](C=O)CCCNC(=N)N
Result: 0

====

Biological target: porcine kidney calpain 2 (Sus scrofa, UniProt I3LQD3)
Sequence (P04574 whole entry): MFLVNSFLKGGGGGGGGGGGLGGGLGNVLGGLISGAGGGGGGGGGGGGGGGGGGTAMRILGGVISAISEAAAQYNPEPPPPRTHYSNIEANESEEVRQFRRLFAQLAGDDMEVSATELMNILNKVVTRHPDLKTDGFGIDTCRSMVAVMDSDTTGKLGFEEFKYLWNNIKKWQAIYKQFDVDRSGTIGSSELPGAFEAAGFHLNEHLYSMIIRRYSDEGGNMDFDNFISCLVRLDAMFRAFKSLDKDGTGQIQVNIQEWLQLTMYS
Sequence (I3LQD3 entry or part of it): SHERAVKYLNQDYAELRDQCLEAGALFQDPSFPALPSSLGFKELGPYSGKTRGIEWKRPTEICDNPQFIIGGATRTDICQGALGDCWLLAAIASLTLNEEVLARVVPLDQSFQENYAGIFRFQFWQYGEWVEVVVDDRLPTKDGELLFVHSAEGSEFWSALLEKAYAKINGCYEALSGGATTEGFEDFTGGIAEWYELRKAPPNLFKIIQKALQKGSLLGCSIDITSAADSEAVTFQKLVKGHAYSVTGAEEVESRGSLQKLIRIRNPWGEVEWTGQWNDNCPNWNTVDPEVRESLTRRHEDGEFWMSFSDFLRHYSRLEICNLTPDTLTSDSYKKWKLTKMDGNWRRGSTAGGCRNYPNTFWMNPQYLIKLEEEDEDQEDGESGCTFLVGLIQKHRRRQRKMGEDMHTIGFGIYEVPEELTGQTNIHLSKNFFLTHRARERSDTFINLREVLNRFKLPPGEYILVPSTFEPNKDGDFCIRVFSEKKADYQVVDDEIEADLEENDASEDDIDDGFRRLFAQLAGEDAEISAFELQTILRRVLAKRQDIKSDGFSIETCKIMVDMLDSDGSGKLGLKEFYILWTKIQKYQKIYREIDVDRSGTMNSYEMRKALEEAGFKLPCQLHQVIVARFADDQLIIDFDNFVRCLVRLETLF
Assay: Enzymatic calpain assay with fluorogenic substrate
Format: biochemical
Conditions: porcine kidney calpain 2, 37° C., 10 mM calcium chloride, FIG. 7 Panel A
pIC50: −log10 of the molar value.
assay_endpoint: pIC50

Problem: Please report the measured pIC50 for CC(C)CC(NC(=O)CCC(=O)NC(CC(=O)[O-])C[N+](C)(C)C)C(=O)NC(C=O)CCCNC(=N)N [L-isomer of CLA] tested on porcine kidney calpain 2 (Sus scrofa, UniProt I3LQD3).
Result: 6.00 to 6.30
